test: bead signal artefacts at single dose – biochemical, AlphaScreen, triplicate, counter-screen for MITF inhibitor project (AID 1259376); conditions: LysRS AlphaScreen counterscreen, signal interference, at 2.6 µM
Out of some 4,700 compounds screened, about 360 (7.7%) were called active.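 Rule for the calls: active = inhibition above a cutoff derived from the DMSO control wells (cut at about 30% in these data); inactive = the rest.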 Not all results are given here.
Please state which outcome applies, choosing from true (1) for active, false (0) for inactive

Look over these answered cases.
molecule | group
CC(c1ccccn1)N(CCN(C)C)C(=S)Nc1ccccc1F (centres undefined) | true (1)
COc1cccc(OC)c1C(=O)N1CCN(Cc2ccccc2F)CC1 | false (0)
N#Cc1ccc(OCC(=O)Nc2nc(-c3ccccn3)cs2)cc1 | true (1)
Cn1c(-c2ccc(F)cc2)cnc1NCc1cccnc1 | false (0)
O=c1c2ccccc2ncn1CCCCOc1ccccc1F | false (0)

Ask: Any idea what this test logged for COc1cc(CN2CCN(Cc3ccco3)CC2)c([N+](=O)[O-])cc1OC ?
Result: false (0)

Ask: Any idea what this test logged for NS(=O)(=O)c1cccc(NC(=O)COc2ncnc3sc(-c4ccccc4)cc23)c1 ?
Result: false (0)

Ask: Any idea what this test logged for O=[N+]([O-])c1ccc(OCc2nnc(SCCN3CCOCC3)n2-c2ccccc2)cc1 ?
Result: false (0)

Ask: Any idea what this test logged for COc1ccc(C2C(C(C)=O)=C(C)N=C3SCC(=O)N32)c(OC)c1 (centres undefined) ?
Result: false (0)

###

Property: inhibition; scope: individual compounds
assay: bead signal artefacts at single dose – biochemical, AlphaScreen, triplicate, counter-screen for MITF inhibitor project (AID 1259376); conditions: LysRS AlphaScreen counterscreen, signal interference, at 2.6 µM, stronger effect = higher value
Hit rate of the full screen: of about 4,700 compounds, about 360 (7.7%) were called active. The list is a sample of the results.
Just the number in %, nothing appended.

Illustrative cases are given below, each with its answer.
compound | inhibition [%]
N#C/C(=C/c1ccc(-c2ccc3c(c2)C(=O)NC3=O)o1)C(=O)O | 13.4
Cc1cc(NC(=O)CNCCCN(C)C)no1 | 1.07
O=C(Cc1cccs1)N/N=C\C=C\c1ccco1 | -6.28

Attention now turns to another entry.
Ask: Value lookup for inhibition; key = CC(C)(C)NCC(=O)Nc1c2c(nc3ccccc13)N(Cc1ccccc1)CC2
Result: 15.5

###

assay: bead signal artefacts at single dose – biochemical, AlphaScreen, triplicate, counter-screen for MITF inhibitor project (AID 1259376); details: LysRS AlphaScreen counterscreen, signal interference, at 2.6 µM, stronger effect = higher value
Out of some 4,700 compounds screened, about 360 (7.7%) were called active. These entries were drawn from the full list.
experimentalReadout: inhibition

Illustrative cases are given below, each with its answer.
compound | inhibition
CCN1CCN(CC(=O)N/N=C/c2cccc(Cl)c2)CC1 | 3.65% (inactive)
C=CCNC(=O)c1sc(=S)n(CC)c1N | -4.06% (inactive)
c1cc2c(cc1CNc1nc(Nc3ccc(N4CCOCC4)cc3)c3ncn(C4CCCCC4)c3n1)OCO2 | -14.4% (inactive)
CN1CCN(CCC(=O)N/N=C/c2ccsc2)CC1 | -5.86% (inactive)
COc1ccc(CN2CCN(Cc3ccccc3C)CC2)c(OC)c1OC | -1.44% (inactive)
Cc1cc(NC(=O)/C=C/C(=O)N(CC(=O)NC2CCCC2)c2ccc(F)cc2)no1 | 10.1% (inactive)

Ask: Value lookup for inhibition; key = COc1ccc(C(=O)NCCN2CCN(c3nc4c(C)c(C)ccc4s3)CC2)cc1
Result: -2.39% (inactive)

Ask: Value lookup for inhibition; key = Cc1nnc(N2CCC(Cc3ccccc3)CC2)c2ccccc12
Result: 6.39% (inactive)

Ask: Value lookup for inhibition; key = CCS(=O)(=O)N1CCN(C2CCCCC2C)CC1 (stereo unspecified)
Result: 7.29% (inactive)

Ask: Value lookup for inhibition; key = O=C(c1cccs1)N1CCC(N2CCN(Cc3ccccc3)CC2)CC1
Result: -5.37% (inactive)

Ask: Value lookup for inhibition; key = COc1ccc2c(c1)CC(c1nc(Nc3ccc4cnccc4c3)c3ccccc3n1)CO2 (stereo unspecified)
Result: 8.8% (inactive)

###

assay: bead signal artefacts at single dose – biochemical, AlphaScreen, triplicate, counter-screen for MITF inhibitor project (AID 1259376); conditions: LysRS AlphaScreen counterscreen, signal interference, at 2.6 µM, stronger effect = higher value
Out of some 4,700 compounds screened, about 360 (7.7%) were called active. The list is a sample of the results.
Property: inhibition; scope: individual compounds
Just the number in %, nothing appended.

Illustrative cases are given below, each with its answer.
compound | inhibition / %
COc1cccc(CN2CCN(CCCc3ccccc3)CC2CCO)c1 (configuration not stated) | -5.46
COC(=O)c1cccc(NS(=O)(=O)c2ccc3ccccc3c2)c1C | 21.9
CS(=O)(=O)N1CCN(Cc2cccc(Cl)c2)CC1 | -4.82
CCN1CCN(CCOCCOc2ccc([N+](=O)[O-])cc2)CC1 | 9.29
c1ccc(-c2ccccc2OCCNCCN2CCOCC2)cc1 | 24.1
COc1ccccc1CN1CC(C)OC(C)C1 (configuration not stated) | 3.15

Ask: Value lookup for inhibition; key = O=C(c1cccc(Cl)c1)N1CCN(Cc2cccnc2)CC1
Result: 7.21

Ask: Value lookup for inhibition; key = O=C(CCC(=O)OCc1ccc(Cl)cc1)Nc1ccc([N+](=O)[O-])cc1
Result: 14.7

Ask: Value lookup for inhibition; key = CCN(CC)CC(=O)Nc1c2c(nc3ccccc13)N(c1cccc(C)c1)CC2
Result: 1.32

Ask: Value lookup for inhibition; key = Clc1ccc(CN2CCN(CC3CC=CCC3)CC2)cc1 (configuration not stated)
Result: 1.68

Ask: Value lookup for inhibition; key = CCN1CCN(CCOCCOc2ccccc2OCc2ccccc2)CC1
Result: 9.59

Ask: Value lookup for inhibition; key = COc1cc(OC)c(OC)cc1CN1CCN(Cc2ccc(F)cc2)CC1
Result: -4.28

###

assay: bead signal artefacts at single dose – biochemical, AlphaScreen, triplicate, counter-screen for MITF inhibitor project (AID 1259376); settings: LysRS AlphaScreen counterscreen, signal interference, at 2.6 µM
The campaign covered roughly 4,700 compounds. About 360 (7.7%) were called active.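 Rule for the calls: active = inhibition above a cutoff derived from the DMSO control wells (cut at about 30% in these data); inactive = the rest.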 Only a sample is shown.
Please state which outcome applies, choosing from active, inactive

Look over these answered cases.
molecule | group
c1cncc(CCNc2ccc3ncc(-c4cc5ccccc5o4)n3n2)c1 | inactive
CCN(CC)CCN1COc2c(cc(Cl)c3cccnc23)C1 | active

Ask: Any idea what this test logged for Cc1ccc(C(C)C)c(OCC#CCN2CCNCC2)c1 ?
Result: inactive

Ask: Any idea what this test logged for CCC(C)NCCOCCOc1cc(C)cc(C)c1C (stereo not given) ?
Result: inactive

Ask: Any idea what this test logged for Cc1ccc(C)c(OCCN2CCOCC2)c1C ?
Result: inactive

###

experiment: bead signal artefacts at single dose – biochemical, AlphaScreen, triplicate, counter-screen for MITF inhibitor project (AID 1259376); settings: LysRS AlphaScreen counterscreen, signal interference, at 2.6 µM, stronger effect = higher value
Among all 4,700 compounds or so, about 360 (7.7%) were called active. Only a sample is shown.
Rule: inhibition under 3% gives Not fulfilled, otherwise Fulfilled.

compound | group
c1cc2c(cc1CN1CCN(C3CCCCC3)CC1)OCO2 | Not fulfilled
O=C1c2ccccc2C(O)N1Cc1ccccc1Cl (stereo unspecified) | Not fulfilled
COc1ccc(CN2CCN(Cc3cccc(Br)c3)CC2)c(OC)c1 | Fulfilled
Cc1nc(NC(=O)c2cc(Br)ccc2Cl)sc1C | Fulfilled

Now consider a different compound.
Ask: Does the compound Cc1nc(NC2CC2)cc(-c2ccc(F)cc2)n1 have recorded inhibition that is 3% or more?
Result: Fulfilled

###

assay: bead signal artefacts at single dose – biochemical, AlphaScreen, triplicate, counter-screen for MITF inhibitor project (AID 1259376); details: LysRS AlphaScreen counterscreen, signal interference, at 2.6 µM, stronger effect = higher value
Screen size: about 4,700 compounds; about 360 (7.7%) were called active. A selection follows.
experimentalReadout: inhibition (%)
Just the number in %, nothing appended.

Illustrative cases are given below, each with its answer.
molecule | inhibition (%)
Cc1cc(NC(=O)CSc2ccc(-c3ccccn3)nn2)no1 | 93.4
CN(CCc1ccccn1)CC(=O)N1CCc2ccccc21 | -7.9
COc1ccc(OCCCC(=O)Oc2ccc(OC)cc2)cc1 | 3.96
O=C(CN1CCN(CC(=O)c2ccco2)CC1)Nc1ccc(Cl)c(Cl)c1 | 10.6
Cc1cc(OCCN2CCN(C)CC2)ccc1C(C)C | 4.96
CCCn1c(C)cc(-c2csc(NC(=O)Cc3ccsc3)n2)c1C | 12
CCOc1cc(CN2CCN(Cc3ccccn3)CC2)ccc1OC | 17.5
CCOc1ccc(CN2CCCN(C)CC2)cc1 | 0.42

Ask: Value lookup for inhibition; key = C1=CC2CC1CC2CN1CCN(Cc2c[nH]c3ccccc23)CC1 (configuration not stated)
Result: 2.75

Ask: Value lookup for inhibition; key = C=CCNCCOCCOc1cc(C)ccc1C(C)(C)C
Result: 15.9

Ask: Value lookup for inhibition; key = CCc1ccc(NC(=O)CS(=O)CC(=O)NCCCc2ccccc2)cc1 (configuration not stated)
Result: -4.98

Ask: Value lookup for inhibition; key = c1ccc(CCCCNc2nccc(Nc3ccncn3)n2)cc1
Result: 9.16
